experiment: Metabolic stability and intrinsic clearance in human liver microsomes (HLM); type: in vitro ADME; settings: pooled human liver microsomes, NADPH, 37° C., 0.5-30 minutes, read-out: Human Liver Microsomes Median CLint
valueType: microsomal CLint at 1 μM (µL/min/mg)

[2H]C1([2H])CN(C(=O)c2cc(-c3cc(Cl)c4c(c3)CN([C@@H](C)C3CC3)C4=O)on2)CC([2H])([2H])O1 [Compound B]    9.5
[2H]C1([2H])COCC([2H])([2H])N1C(=O)c1cc(-c2cc(Cl)c3c(c2)CN([C@@H](C)C2CC2)C3=O)on1 [Compound C]    7
C[C@@H](C1CC1)N1Cc2cc(-c3cc(C(=O)N4CCOCC4)no3)cc(Cl)c2C1=O [Compound D, reference compound]    9.5

###

assay: Metabolic stability and intrinsic clearance in human liver microsomes (HLM); format: in vitro ADME; settings: pooled human liver microsomes, NADPH, 37° C., 0.5-30 minutes, read-out: Human Liver Microsomes Median t1/2
valueType: half-life at 1 μM (h)

[2H]C1([2H])CN(C(=O)c2cc(-c3cc(Cl)c4c(c3)CN([C@@H](C)C3CC3)C4=O)on2)CC([2H])([2H])O1 [Compound B]    1.22
C[C@@H](C1CC1)N1Cc2cc(-c3cc(C(=O)N4CCOCC4)no3)cc(Cl)c2C1=O [Compound D, reference compound]    1.22
[2H]C1([2H])COCC([2H])([2H])N1C(=O)c1cc(-c2cc(Cl)c3c(c2)CN([C@@H](C)C2CC2)C3=O)on1 [Compound C]    1.66

###

experiment: Pharmacokinetics after intravenous bolus in rats; assay type: in vivo; conditions: male Wistar rat, nominal dose 1.0 mg/kg, plasma
valueType: AUC (µM·h)

[2H]C1([2H])OC([2H])([2H])C([2H])([2H])N(C(=O)c2cc(-c3cc(Cl)c4c(c3)CN([C@@H](C)C3CC3)C4=O)on2)C1([2H])[2H]    1.29
C[C@@H](C1CC1)N1Cc2cc(-c3cc(C(=O)N4CCOCC4)no3)cc(Cl)c2C1=O [Compound D, reference compound]    0.915

###

target: human metabotropic glutamate receptor 2 (mGluR2) (Homo sapiens); assay: Binding Assay (mGluR2 GTPγ35S assay); settings: membranes from CHO-K1 cells expressing human mGluR2; L-glutamate and GTPγ35S stimulation, 45 minutes, SPA
Sequence (Q14416 19-872): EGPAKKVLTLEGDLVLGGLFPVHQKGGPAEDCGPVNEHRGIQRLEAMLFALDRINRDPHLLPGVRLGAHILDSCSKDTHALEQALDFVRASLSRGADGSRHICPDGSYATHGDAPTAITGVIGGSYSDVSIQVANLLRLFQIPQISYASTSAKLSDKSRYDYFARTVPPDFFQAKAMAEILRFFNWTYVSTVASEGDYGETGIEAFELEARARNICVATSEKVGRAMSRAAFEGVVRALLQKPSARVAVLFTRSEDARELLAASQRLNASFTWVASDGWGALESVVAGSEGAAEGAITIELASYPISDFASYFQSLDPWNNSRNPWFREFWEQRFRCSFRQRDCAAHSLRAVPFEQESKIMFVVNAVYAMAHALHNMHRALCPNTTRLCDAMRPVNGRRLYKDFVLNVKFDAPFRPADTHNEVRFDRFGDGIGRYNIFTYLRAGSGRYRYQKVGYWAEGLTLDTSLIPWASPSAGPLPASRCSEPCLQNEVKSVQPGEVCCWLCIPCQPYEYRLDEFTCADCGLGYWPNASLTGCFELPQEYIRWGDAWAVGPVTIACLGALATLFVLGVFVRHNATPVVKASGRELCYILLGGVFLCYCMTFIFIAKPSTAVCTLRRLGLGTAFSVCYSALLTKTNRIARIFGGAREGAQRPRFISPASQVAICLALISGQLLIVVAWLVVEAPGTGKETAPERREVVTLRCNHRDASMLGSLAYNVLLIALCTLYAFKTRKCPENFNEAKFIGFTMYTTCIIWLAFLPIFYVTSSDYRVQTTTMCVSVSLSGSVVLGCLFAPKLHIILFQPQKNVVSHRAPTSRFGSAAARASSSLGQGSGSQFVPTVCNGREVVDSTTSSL
pEC50: −log10 of the molar value.
valueType: pEC50

C[C@@H](C1CC1)N1Cc2cc(-c3cc(C(=O)N4CCOCC4)no3)cc(Cl)c2C1=O [Compound D, reference compound]    6.92
[2H]C1([2H])OC([2H])([2H])C([2H])([2H])N(C(=O)c2cc(-c3cc(Cl)c4c(c3)CN([C@@H](C)C3CC3)C4=O)on2)C1([2H])[2H]    6.77

###

assay: Pharmacokinetics after intravenous bolus in rats; format: in vivo; conditions: male Wistar rat, nominal dose 1.0 mg/kg, plasma
valueType: half-life (min)

C[C@@H](C1CC1)N1Cc2cc(-c3cc(C(=O)N4CCOCC4)no3)cc(Cl)c2C1=O [Compound D, reference compound]    48.8
[2H]C1([2H])OC([2H])([2H])C([2H])([2H])N(C(=O)c2cc(-c3cc(Cl)c4c(c3)CN([C@@H](C)C3CC3)C4=O)on2)C1([2H])[2H] [Compound A]    45.7

###

assay: Metabolic stability and intrinsic clearance in dog hepatocytes; type: in vitro ADME; conditions: cryopreserved dog hepatocytes 1.0×10^6 viable cells/mL, 37° C., up to 120 minutes; read-out: Dog Hepatocytes Median t1/2
valueType: half-life at 1 μM (min)
Report as a plain number; the unit min is understood.

[2H]C1([2H])CN(C(=O)c2cc(-c3cc(Cl)c4c(c3)CN([C@@H](C)C3CC3)C4=O)on2)CC([2H])([2H])O1 [Compound B]    40.1
[2H]C1([2H])COCC([2H])([2H])N1C(=O)c1cc(-c2cc(Cl)c3c(c2)CN([C@@H](C)C2CC2)C3=O)on1 [Compound C]    33.3
C[C@@H](C1CC1)N1Cc2cc(-c3cc(C(=O)N4CCOCC4)no3)cc(Cl)c2C1=O [Compound D, reference compound]    29.9

// next entry
Looking up [2H]C1([2H])OC([2H])([2H])C([2H])([2H])N(C(=O)c2cc(-c3cc(Cl)c4c(c3)CN([C@@H](C)C3CC3)C4=O)on2)C1([2H])[2H] [Compound A] , I see its half-life at 1 μM listed as 40.1

###

assay: Metabolic stability and intrinsic clearance in rat hepatocytes; assay type: in vitro ADME; details: cryopreserved rat hepatocytes 1.0×10^6 viable cells/mL, 37° C., up to 120 minutes; read-out: Rat Hepatocytes Median t1/2
valueType: half-life at 1 μM (min)
Report as a plain number; the unit min is understood.

Worked examples, 3 molecules total:
[2H]C1([2H])OC([2H])([2H])C([2H])([2H])N(C(=O)c2cc(-c3cc(Cl)c4c(c3)CN([C@@H](C)C3CC3)C4=O)on2)C1([2H])[2H]    100
[2H]C1([2H])COCC([2H])([2H])N1C(=O)c1cc(-c2cc(Cl)c3c(c2)CN([C@@H](C)C2CC2)C3=O)on1    29.1
[2H]C1([2H])CN(C(=O)c2cc(-c3cc(Cl)c4c(c3)CN([C@@H](C)C3CC3)C4=O)on2)CC([2H])([2H])O1    36.8

Looking up C[C@@H](C1CC1)N1Cc2cc(-c3cc(C(=O)N4CCOCC4)no3)cc(Cl)c2C1=O [Compound D, reference compound] , I see its half-life at 1 μM listed as 37.3

###

Experiment: Pharmacokinetics after intravenous bolus in rats
Type: in vivo
Settings: male Wistar rat, nominal dose 1.0 mg/kg, plasma
Procedure: The animals were single dosed via intravenous (IV) bolus to tail vein over approximately 5 seconds. The animals were not fasted prior to dosing. […] Animals were evaluated during in-life phase. The blood samples were centrifuged at 2000 g for 5 minutes at 4° C. to obtain plasma. […] Concentration of Compounds A and D in plasma and tissue samples were analyzed using a LC-MS/MS method. […] AUC was calculated using log trapezoidal method.
valueType: clearance (mL/min/kg)

C[C@@H](C1CC1)N1Cc2cc(-c3cc(C(=O)N4CCOCC4)no3)cc(Cl)c2C1=O [Compound D, reference compound]    44.3
[2H]C1([2H])OC([2H])([2H])C([2H])([2H])N(C(=O)c2cc(-c3cc(Cl)c4c(c3)CN([C@@H](C)C3CC3)C4=O)on2)C1([2H])[2H] [Compound A]    31.1
